# Tested on: 786-0 renal
# EXPERIMENTAL PROTOCOL: NCI tumour cell line growth inhibition, 48 h; in the data active means GI50 below about 0.43 µM; inactive means the rest
Lab note: assign the record to one of active, inactive

COMPOUND: COc1cc(C(=O)c2ccc3c(c2)OCO3)cc(OC)c1OC
ASSIGNED CATEGORY: inactive
//
COMPOUND: Cc1cc(N2CCCCC2)nc(N(CCCNc2ccnc3cc(Cl)ccc23)Cc2ccco2)n1
ASSIGNED CATEGORY: inactive
//
COMPOUND: c1ccc(Cn2cc3c(c2-c2ccccc2)CCc2cnoc2-3)cc1
ASSIGNED CATEGORY: inactive

// return assay outcome for CC1=C[C@H]2c3c(c(O)c(O)c4oc5c(C)cccc5c(=O)c34)[C@H](c3cc(O)c(O)c4oc5c(C)cccc5c(=O)c34)[C@H]2C(C)(C)C1 inactive

* * *

# System: SK-MEL-5 melanoma
# EXPERIMENTAL PROTOCOL: NCI tumour cell line growth inhibition, 48 h
Listing of entries alongside the reported TGI.

Please review the following examples before continuing.
COMPOUND: COC(OC)C1OC(CO)C(n2cc(C)c(=O)[nH]c2=O)C1O (stereo unspecified)
TGI: > 100 µM

COMPOUND: O=S(=O)(O)O.[NH-]C1CCCCC1[NH-].[Pt+2] (stereo unspecified)
TGI: > 100 µM

COMPOUND: CS(=O)(=O)NNS(=O)(=O)c1cccc([N+](=O)[O-])c1
TGI: > 100 µM

Bench note: what TGI did COC(=O)CCCN(C)c1n[nH]c(N)n1 show? > 100 µM

Bench note: what TGI did COC(=O)C1=C2CCC(=O)[C@@]2(C)C(OC(C)=O)C=CC1 (stereo partly specified) show? > 100 µM

Bench note: what TGI did COc1cc(OC)cc(Oc2nc3ccccc3nc2C(=O)O)c1 show? > 100 µM

Bench note: what TGI did COc1ccc(C[C@@H]2Cc3cc(OC)c(OC)cc3CN2C)cc1 show? > 100 µM

Bench note: what TGI did CCC[CH2][Sn]1([CH2]CCC)[O]C(=O)c2cc(I)cc(I)c2[O]1 show? 2.88 µM

Bench note: what TGI did O=C(CN1CCN(c2ncnc3ccccc23)CC1)Nc1ccc(Cl)cc1C(=O)c1ccccc1Cl show? 2.7 µM

Bench note: what TGI did COC1=C2CC(C)CC(OC)[C@@H](OC(=O)CCN)[C@H](C)/C=C(\C)C(OC(N)=O)C(OC)/C=C\C=C(/C)C(=O)NC(=CC1=O)C2=O (stereo partly specified) show? 15.2 µM

Bench note: what TGI did COc1cccc(C2c3cc4c(cc3OC(C)(O)C2C)OCO4)c1O (stereo unspecified) show? 16.9 µM

* * *

# System: M19-MEL melanoma
# EXPERIMENTAL PROTOCOL: NCI tumour cell line growth inhibition, 48 h
Listing of entries alongside the reported TGI.

COMPOUND: CS(=O)(=O)NNS(=O)(=O)c1cccc([N+](=O)[O-])c1
TGI: > 100 µM

Bench note: what TGI did O=c1/c(=C/c2cccc([N+](=O)[O-])c2)sc2nc3ccccc3n12 show? > 100 µM

Bench note: what TGI did CCN1CCC(O)(c2ccc(C)cc2)C(C(=O)c2ccc(C)cc2)C1 (stereo not drawn) show? > 61.2 µM

Bench note: what TGI did CCCN(CCCCC(NC(C)=O)C(=O)NCc1ccccc1)C(=O)N(C)N=O (stereo not drawn) show? > 100 µM

Bench note: what TGI did COc1ccc(N2C(=O)C3c4[nH]c5ccc(OC)cc5c4C4CCC(C(C)(C)C)CC4C3C2=O)cc1 (stereo not drawn) show? > 100 µM

* * *

# Test system: HOP-62 NSCLC
# EXPERIMENTAL PROTOCOL: NCI tumour cell line growth inhibition, 48 h; in the data active = GI50 below about 0.43 µM; inactive = the rest
Lab note: assign the record to one of active, inactive

// return assay outcome for C[C@@H]1CN(C(=O)c2ccc(NC(=O)c3cc(O[C@H](C)c4c(Cl)ccc(F)c4Cl)c(N)nn3)cc2)C[C@H](C)N1 inactive

// return assay outcome for COc1ccc(-c2[nH]c3ccccc3c2C=C(C#N)C#N)cc1 inactive

// return assay outcome for CCCN(CCC)C(=O)C1=Cc2ccc(-c3ccc(C(=O)N4CCCC4)cc3)cc2N=C(N)C1 inactive

// return assay outcome for CC[C@@H](C(=O)[C@@H](C)[C@@H](O)[C@H](C)[C@@H]1O[C@@H]([C@@H](CC)C(=O)O)CC[C@@H]1C)C1O[C@]2(C=CC(=O)[C@]3(CC[C@@](C)([C@H]4CC[C@](O)(CC)[C@H](C)O4)O3)O2)[C@H](C)C[C@@H]1C (some centres not stated) active

// return assay outcome for COc1ccccc1OCC(=O)Nc1sc2c(c1C(N)=O)CCC2 inactive

// return assay outcome for COc1ccc2nc(-c3cc(-c4cc(OC)c(OC)c(OC)c4)n[nH]3)[nH]c2c1 inactive

// return assay outcome for COc1cc2nc(-c3cnc(N(C)C)nc3)nc(NC3CCN(Cc4ccccc4)CC3)c2cc1OC inactive

* * *

# Tested on: SW-620 colon
# EXPERIMENTAL PROTOCOL: NCI tumour cell line growth inhibition, 48 h
Listing of entries alongside the reported TGI.

Please review the following examples before continuing.
COMPOUND: CCCN(CCC)C(=O)C1=Cc2ccc(-c3ccc(C(=O)N4CCCC4)cc3)cc2N=C(N)C1
RESULT: 31.8 µM

COMPOUND: C/C=C(C)/C=C/CC(C)CCC=C(C)C (stereo not given)
RESULT: > 100 µM

Bench note: what TGI did CCCCON1C[C@@H](O)C(O)[C@@H](O)C1 (stereo not given in full) show? > 100 µM

Bench note: what TGI did COC(=O)CCCN(C)c1n[nH]c(N)n1 show? > 100 µM

Bench note: what TGI did Cc1nc(Cl)nc(Cl)c1C show? > 100 µM

Bench note: what TGI did C/C(=N\NS(=O)(=O)c1ccc(C)cc1)C(CN1CCOCC1)C(c1ccccc1)c1c(O)c2ccccc2oc1=O (stereo not given) show? > 100 µM

Bench note: what TGI did CC(=O)[CH-]C(=O)c1ccccc1.CC(=O)[CH-]C(=O)c1ccccc1.CC[O-].CC[O-].[Zr+4] show? > 100 µM

Bench note: what TGI did Cc1cc2c(cc1Cl)SC1=CC(=O)N(c3ccccc3)C1=NS2(=O)=O show? > 100 µM

Bench note: what TGI did CCOC(=O)C12CCCC1(O)N(NC(=O)c1ccccc1)C(C)=C2C(=O)OC (stereo not given) show? > 100 µM

Bench note: what TGI did C/C=C/c1c(O)c(=O)c2c(OC)cc(OC)c3c4c(OC)cc(OC)c5c(=O)c(O)c(/C=C/C)c(c1c23)c54 show? 87.8 µM

* * *

# Tested on: HS 578T breast
# EXPERIMENTAL PROTOCOL: NCI tumour cell line growth inhibition, 48 h
Listing of entries alongside the reported TGI.
A number alone suffices; assume µM.

COMPOUND STRUCTURE: Oc1ccc2cc(Br)ccc2c1-c1c(O)ccc2cc(Br)ccc12
TARGET OR TEST SYSTEM: HS 578T breast
TGI (µM): 23.3

Identify the measured TGI of CC(C)/C(Cl)=N\OC(=O)Nc1cccc(F)c1 for HS 578T breast. 63.2

* * *

# Test system: HOP-62 NSCLC
# EXPERIMENTAL PROTOCOL: NCI tumour cell line growth inhibition, 48 h
QUANTITY NAME: TGI

Please review the following examples before continuing.
COMPOUND: Cc1cc2c(cc1Cl)SC1=CC(=O)N(c3ccccc3)C1=NS2(=O)=O
TGI: > 100 µM
--
COMPOUND: Cc1ccc(NC(=O)CCC(CC(=O)C(C)(C)C)=NNC(=O)C(=O)NN)cc1C
TGI: > 100 µM

Bench note: what TGI did CC1=C(C(=O)Nc2ccc(F)c(Cl)c2)C(c2ccccc2Cl)NC(=S)N1 (stereo not given) show? > 50 µM

Bench note: what TGI did COc1ccc2cc(C(C)C(O)c3cc(F)c(F)c(F)c3F)ccc2c1 (stereo not given) show? > 100 µM

Bench note: what TGI did Cc1cc(NS(=O)(=O)c2ccc(N=Nc3cc(N=Nc4ccc(S(=O)(=O)Nc5cc(C)nc(C)n5)cc4)c4c(NC(=O)C(Cl)Cl)cccc4c3OC(=O)C(Cl)Cl)cc2)nc(C)n1 (tested in a mixture with another compound) show? 78.8 µM

* * *

# Test system: MOLT-4 leukemia
# EXPERIMENTAL PROTOCOL: NCI tumour cell line growth inhibition, 48 h
QUANTITY NAME: TGI

Bench note: what TGI did CC1=NN(C(=O)CC(=O)Nc2ccccc2C)C(=O)C1N=Nc1ccc(C(=O)O)cc1 (centres undefined) show? > 100 µM

Bench note: what TGI did O=C(Nc1cc(C(=O)Nc2cccc(S(=O)(=O)O)c2)cc(C(=O)Nc2cccc(S(=O)(=O)O)c2)c1)c1cccc(C(=O)Nc2cc(C(=O)Nc3cccc(S(=O)(=O)O)c3)cc(C(=O)Nc3cccc(S(=O)(=O)O)c3)c2)c1 show? > 100 µM

Bench note: what TGI did C[n+]1c2ccccc2c(CNc2ccc(S(=O)(=O)N=C(N)N)cc2)c2ccccc21 show? 1.7 µM

Bench note: what TGI did CCSc1nc(N)c2c(-c3ccc(OC)c(OC)c3)c3c(nc2n1)CCCC3 show? > 100 µM
